Measured LC50 at 24 h by item
- testDetails: Toxicity against Artemia salina (brine shrimp) larvae assessed as mortality after 24 hr
- Format: organism-based
- experimentalSetup: in vivo
// return numeric value only (unit: µM, not printed)

A selection of reference data follows.
C/C(=N/NC(=S)Nc1ccccc1)c1ccc(Cl)cc1	438
C/C(=N/N=C(\N)S)C12CC3CC(CC(C3)C1)C2	119
C/C(=N/NC(=S)Nc1ccccc1)c1ccc(Br)cc1	134

Turning now to a further compound:
Form field: reported LC50 at 24 h of C/C(=N/NC(N)=S)c1ccc2ccccc2c1
481

====

- testDetails: Selectivity index, ratio of LC50 for Artemia salina larvae to IC50 for Trypanosoma brucei brucei 427 bloodstream form
Measured Ratio LC50/IC50 by item
Just the number, please, no unit after it.

A selection of reference data follows.
C/C(=N/NC(=S)Nc1ccccc1)c1ccc(Br)cc1	25.9
C/C(=N/NC(N)=S)c1ccc2ccccc2c1	50
C/C(=N/N=C(\N)S)C12CC3CC(CC(C3)C1)C2	14.2

Form field: reported Ratio LC50/IC50 of C/C(=N/NC(=S)Nc1ccccc1)c1ccc(Cl)cc1
110
